// provenance: ChEMBL document CHEMBL3991601

Target: Dual specificity protein kinase CLK4 (Homo sapiens); also: in the data inactive means no Kd found up to 30 µM
Sequence (Q9HAZ1 whole entry): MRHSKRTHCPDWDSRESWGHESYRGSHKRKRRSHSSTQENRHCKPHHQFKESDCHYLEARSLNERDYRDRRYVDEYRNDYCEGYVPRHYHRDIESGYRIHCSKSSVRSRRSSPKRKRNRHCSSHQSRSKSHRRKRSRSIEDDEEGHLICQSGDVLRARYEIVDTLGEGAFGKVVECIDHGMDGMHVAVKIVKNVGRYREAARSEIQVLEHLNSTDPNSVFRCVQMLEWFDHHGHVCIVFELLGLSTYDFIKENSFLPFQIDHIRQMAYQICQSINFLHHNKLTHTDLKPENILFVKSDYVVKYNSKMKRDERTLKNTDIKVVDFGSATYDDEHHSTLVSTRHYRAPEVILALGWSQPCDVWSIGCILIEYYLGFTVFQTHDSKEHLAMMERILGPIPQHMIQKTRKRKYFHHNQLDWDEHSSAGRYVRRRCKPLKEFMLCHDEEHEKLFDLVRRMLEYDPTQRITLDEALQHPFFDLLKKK
The source made the active and inactive calls.
Result category, one only: active, inactive

compound: COC(=O)[C@@]1(O)C[C@H]2O[C@]1(C)n1c3ccccc3c3c4c(c5c6ccccc6n2c5c31)C(=O)NC4 [K-252A]
label: active

In this assay, the call recorded for `C[C@@H]1CN(Cc2ccc(F)cc2)[C@@H](C)CN1C(=O)c1cc2c(C(=O)C(=O)N(C)C)cn(C)c2cc1Cl` was what?
inactive

In this assay, the call recorded for `COc1ccc(-c2ccc3c(N4CCOC[C@@H]4C)nc(N4CCOC[C@@H]4C)nc3n2)cc1CO` was what?
inactive

###

Molecular target: Protein kinase C alpha type (Homo sapiens, UniProt P17252); also: in the data inactive means no Kd found up to 30 µM
The source made the active and inactive calls.
Result category, one only: active, inactive

Observe how each entry below is paired with its result.
smiles-representation: Cc1cc([C@@H](C)Nc2ccccc2C(=O)O)c2nc(N3CCOCC3)cc(=O)n2c1
label: inactive
--
smiles-representation: O=C1NC(=O)/C(=C/c2ccc3nccc(-c4ccncc4)c3c2)S1
label: inactive

In this assay, the call recorded for `C1=C/COCc2cc(ccc2OCCN2CCCC2)Nc2nccc(n2)-c2cccc(c2)COC/1` was what?
active

In this assay, the call recorded for `Cc1nc(N)sc1-c1ccnc(Nc2ccc(N3CCOCC3)cc2)n1` was what?
inactive

In this assay, the call recorded for `CC[C@@H]1C(=O)N(C)c2cnc(Nc3ccc(C(=O)N[C@H]4CC[C@H](N5CCN(CC6CC6)CC5)CC4)cc3OC)nc2N1C(C)C` was what?
inactive

###

Biological target: Serine/threonine-protein kinase SIK2 (Homo sapiens, UniProt Q9H0K1); also: in the data inactive means no Kd found up to 30 µM
Sequence (Q9H0K1 whole entry): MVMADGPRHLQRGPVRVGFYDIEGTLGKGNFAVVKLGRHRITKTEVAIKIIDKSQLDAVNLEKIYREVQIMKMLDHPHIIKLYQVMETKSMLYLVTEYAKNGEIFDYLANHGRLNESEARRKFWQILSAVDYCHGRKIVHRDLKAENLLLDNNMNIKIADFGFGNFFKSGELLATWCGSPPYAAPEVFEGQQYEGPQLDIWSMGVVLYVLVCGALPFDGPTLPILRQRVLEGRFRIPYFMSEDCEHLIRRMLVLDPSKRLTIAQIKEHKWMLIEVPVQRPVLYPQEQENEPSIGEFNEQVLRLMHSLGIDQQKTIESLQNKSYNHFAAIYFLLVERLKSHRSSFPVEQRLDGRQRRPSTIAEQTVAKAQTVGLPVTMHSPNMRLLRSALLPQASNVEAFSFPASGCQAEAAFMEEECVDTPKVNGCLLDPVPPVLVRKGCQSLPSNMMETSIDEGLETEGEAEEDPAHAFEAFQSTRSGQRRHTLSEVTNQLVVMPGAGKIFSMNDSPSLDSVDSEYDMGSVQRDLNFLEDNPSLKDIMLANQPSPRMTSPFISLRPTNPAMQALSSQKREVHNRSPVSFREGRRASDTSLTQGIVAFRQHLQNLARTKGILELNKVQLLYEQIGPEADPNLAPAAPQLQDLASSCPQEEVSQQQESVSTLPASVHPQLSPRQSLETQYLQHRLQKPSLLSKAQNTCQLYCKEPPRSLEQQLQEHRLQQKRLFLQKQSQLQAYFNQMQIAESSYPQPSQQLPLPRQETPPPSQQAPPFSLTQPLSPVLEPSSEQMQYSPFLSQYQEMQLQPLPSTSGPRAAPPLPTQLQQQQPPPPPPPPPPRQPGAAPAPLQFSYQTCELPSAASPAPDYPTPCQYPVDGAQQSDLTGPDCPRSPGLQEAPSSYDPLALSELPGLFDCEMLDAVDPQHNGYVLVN
Active and inactive are the calls of the source.
Result category, one only: active, inactive

In this assay, the call recorded for `Cn1ncc(Cl)c1-c1cc(C(=O)N[C@H](CN)Cc2cccc(F)c2)sc1Cl` was what?
inactive

In this assay, the call recorded for `COCCNCc1ccc(-c2cc3nccc(Oc4ccc(NC(=S)NC(=O)Cc5ccc(F)cc5)cc4F)c3s2)nc1` was what?
inactive

In this assay, the call recorded for `Cc1cc([C@@H](C)Nc2ccccc2C(=O)O)c2nc(N3CCOCC3)cc(=O)n2c1` was what?
inactive

In this assay, the call recorded for `COc1ccc(-c2ccc3c(N4CCOC[C@@H]4C)nc(N4CCOC[C@@H]4C)nc3n2)cc1CO` was what?
inactive

###

In what follows, each item is paired with its Kd for Serine/threonine-protein kinase 10 (Homo sapiens, UniProt O94804).
Active and inactive are the calls of the source.

compound: CNS(=O)(=O)Nc1nccc(Cc2c(C)c3ccc(Oc4ncccn4)cc3oc2=O)c1F
Kd: > 30 µM (inactive)

Quick one: give me Kd for each item below, same order please.
1. COC(=O)[C@@]1(O)C[C@H]2O[C@]1(C)n1c3ccccc3c3c4c(c5c6ccccc6n2c5c31)C(=O)NC4 [K-252A]
2. O=C(Nc1cccc(Cl)c1)Nc1ncc(CCNc2ncnc3ccsc23)s1
3. C[C@@H]1CN(Cc2ccc(F)cc2)[C@@H](C)CN1C(=O)c1cc2c(C(=O)C(=O)N(C)C)cn(C)c2cc1Cl
4. C[C@@H](Nc1cc(F)cc(F)c1)c1cc(C(=O)N(C)C)cc2c(=O)cc(N3CCOCC3)oc12
5. COc1ccc(-c2ccc3c(N4CCOC[C@@H]4C)nc(N4CCOC[C@@H]4C)nc3n2)cc1CO

1. 0.481 µM (active)
2. > 30 µM (inactive)
3. > 30 µM (inactive)
4. > 30 µM (inactive)
5. > 30 µM (inactive)
